tested on: HCT116; test: In vitro cytotoxicity, cell viability with CellTiter-Blue; format: cell-based; settings: Homo sapiens, HCT-116, 72 h, 72 hours of incubation; in water; read-out: IC50 for different cell lines, HCT116
Assay Metric: pIC50
Reminder that pIC50 is minus the log10 of a molar concentration.

Query: Tell me measured pIC50 for COc1ccc(C(C)c2cc(OC)c(OC)c(OC)c2)cc1OC(=O)CN(C)C (stereo not shown) [Compound I-14] please.
Response: 7.05

----------
List of IC50 values.
molecular target: tubulin (Sus scrofa, UniProt P02550+P02554); construct: from porcine brain in which it forms 20 to 25% of soluble proteins; test: Inhibition of tubulin polymerization followed by turbidimetry; conditions: tubulin from porcine brain, turbidimetry at 350 nm
Sequence (P02554 whole entry): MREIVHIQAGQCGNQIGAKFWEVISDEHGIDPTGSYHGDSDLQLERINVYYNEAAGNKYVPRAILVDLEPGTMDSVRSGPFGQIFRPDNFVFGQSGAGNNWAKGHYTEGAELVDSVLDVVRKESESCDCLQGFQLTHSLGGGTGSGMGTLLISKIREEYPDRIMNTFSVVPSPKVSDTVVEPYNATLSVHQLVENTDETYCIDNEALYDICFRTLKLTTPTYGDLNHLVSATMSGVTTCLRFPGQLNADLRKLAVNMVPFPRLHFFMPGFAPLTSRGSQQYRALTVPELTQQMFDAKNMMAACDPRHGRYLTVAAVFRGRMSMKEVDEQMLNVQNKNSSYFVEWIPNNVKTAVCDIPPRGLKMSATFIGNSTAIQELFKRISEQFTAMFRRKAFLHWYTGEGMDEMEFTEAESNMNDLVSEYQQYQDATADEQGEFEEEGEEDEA
Sequence (P02550 whole entry): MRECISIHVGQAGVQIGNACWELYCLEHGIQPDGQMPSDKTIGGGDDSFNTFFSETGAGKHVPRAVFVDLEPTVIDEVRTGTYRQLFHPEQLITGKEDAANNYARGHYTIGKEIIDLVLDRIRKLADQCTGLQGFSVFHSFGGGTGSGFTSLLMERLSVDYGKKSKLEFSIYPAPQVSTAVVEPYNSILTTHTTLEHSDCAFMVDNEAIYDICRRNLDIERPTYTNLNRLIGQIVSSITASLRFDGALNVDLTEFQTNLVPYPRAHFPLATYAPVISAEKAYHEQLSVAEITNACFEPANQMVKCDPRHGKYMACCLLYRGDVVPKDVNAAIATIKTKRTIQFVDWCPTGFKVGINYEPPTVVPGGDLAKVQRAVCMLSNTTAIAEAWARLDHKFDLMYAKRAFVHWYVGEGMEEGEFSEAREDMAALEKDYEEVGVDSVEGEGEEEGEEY
Report only the number, with the unit µM understood.

Answered cases to consult:
>  <Compound>
COc1ccc(C(C)c2cc(OC)c(OC)c(OC)c2)cc1O (stereo not drawn) [Compound I-1]

>  <Assay Metric>
IC50

>  <Unit Info>
µM

>  <Observed>
3.2

$$$$
>  <Compound>
COc1cc(OC)cc(C(C)c2ccc(OC)c(N)c2)c1 (stereo not drawn)

>  <Assay Metric>
IC50

>  <Unit Info>
µM

>  <Observed>
11

$$$$
>  <Compound>
COc1ccc(C(C)c2cc(OC)c(OC)c(OC)c2)cc1F (stereo not drawn)

>  <Assay Metric>
IC50

>  <Unit Info>
µM

>  <Observed>
6

$$$$

Switching to the query record.
Query: Tell me its IC50 given COc1cc(OC)cc(C(C)c2ccc(OC)c(O)c2)c1 (stereo not drawn) as the entry.
Response: 11

----------
system: HCT116; test: In vitro cytotoxicity, cell viability with CellTiter-Blue; assay type: cell-based; conditions: Homo sapiens, HCT-116, 72 h, read-out: IC50 for different cell lines, HCT116, 72 hours of incubation; in water
Assay Metric: IC50
Write your answer as a measured quantity: the number, then the unit.

Query: Look up and report measured IC50 for this entry: COc1ccc(C(C)c2cc(OC)c(OC)c(OC)c2)cc1OP(=O)(O)O (stereo not shown) [Compound I-16]
Response: 100 nM

----------
tested on: HCT116; assay: In vitro cytotoxicity, cell viability with CellTiter-Blue; assay type: cell-based; settings: Homo sapiens, HCT-116, 72 h, read-out: IC50 for different cell lines, HCT116, 72 hours of incubation; in DMSO
Assay Metric: IC50
Could you give the number and then its unit, please?

Query: Give the value of IC50 reported for the following: COc1ccc(C(C)c2cc(OC)c(OC)c(OC)c2)cc1OP(=O)(O)O (stereo not shown)
Response: 90 nM

----------
tested on: HCT116; assay: In vitro cytotoxicity, cell viability with CellTiter-Blue; assay type: cell-based; conditions: Homo sapiens, HCT-116, 72 h, read-out: IC50 for different cell lines, HCT116, 72 hours of incubation
Assay Metric: IC50

Query: Give IC50 for the following compound: COc1ccc(C(C)c2cc(OC)c(OC)c(OC)c2)cc1N (stereo not shown)
Response: 60 nM

----------
tested on: MDA-MB 231; assay: In vitro cytotoxicity, cell viability with CellTiter-Blue; type: cell-based; conditions: Homo sapiens, MDA-MB-231; 72 hours of incubation; in DMSO; read-out: IC50 for different cell lines, M231
Assay Metric: IC50 (nM)
All answers are understood in nM, so give the number only.

Query: Please give the documented IC50 of COc1ccc(C(C)c2cc(OC)c(OC)c(OC)c2)cc1OC(=O)CN(C)C (stereo not shown)
Response: 50
